test system: Arthrodermataceae; test: Antifungal activity against dermatophytes at 28 degC after 48 to 96 hrs by broth microdilution test
Property measured: MFC50 (µg/mL)
One number for each entry, in µg/mL.

Recorded MFC50, per entry:
CCC(C)n1ncn(-c2ccc(N3CCN(c4ccc(OC[C@@H]5CO[C@@](Cn6cncn6)(c6ccc(Cl)cc6Cl)O5)cc4)CC3)cc2)c1=O (stereo not given in full) ... 1
Cc1ccc(C(CCn2ccnc2)Oc2ccc(C(C)(C)C)cc2)cc1 (stereo not given) ... 16
Clc1ccc(COC(Cn2ccnc2)c2ccc(Cl)cc2Cl)cc1 (stereo not given) ... 4

Field: MFC50. Fill in for each record below.
1. Clc1ccc(COC(Cn2ccnc2)c2ccc(Cl)cc2Cl)c(Cl)c1 (stereo not given)
2. Clc1ccc(C(CCn2ccnc2)Oc2ccccc2)cc1 (stereo not given)
3. Cc1ccc(OC(CCn2ccnc2)c2ccc(F)cc2)cc1 (stereo not given)
4. CNCCC(Oc1ccc(C(F)(F)F)cc1)c1ccccc1 (stereo not given)
5. Clc1ccc(C(CCn2ccnc2)Oc2cc(Cl)cc(Cl)c2)cc1 (stereo not given)
6. Cc1ccc(OC(CCn2ccnc2)c2ccc(Cl)cc2)cc1 (stereo not given)
7. Clc1ccc(C(CCn2ccnc2)OCc2ccc(Cl)cc2Cl)cc1 (stereo not given)

Response given:
1. 2
2. 32
3. 16
4. 64
5. 8
6. 32
7. 16

----------
assay: Cytotoxicity against human K562 cells after assessed as reduction of cell viability 24 hrs by MTT assay; assay type: cell-based
Consider the following molecules; for each one, report its CC50 at 24 h.
One number for each entry, in µM.

Answered cases to consult:
c1ccc(OC(CCn2ccnc2)c2ccccc2)cc1 (stereo not given) ... 220
Clc1ccc(C(CCn2ccnc2)Oc2ccc(Cl)cc2Cl)cc1 (stereo not given) ... 68.8
CCc1ccc(OC(CCn2ccnc2)c2ccc(C)cc2)cc1 (stereo not given) ... 136
Clc1ccc(COC(Cn2ccnc2)c2ccc(Cl)cc2Cl)cc1 (stereo not given) ... 70

In the following, a different molecule is considered.
Challenge: So what does the record say about CC50 at 24 h for Cc1ccc(C(CCn2ccnc2)Oc2ccc(Cl)cc2)cc1 (stereo not given) ?
Response given: 171

----------
tested on: Arthrodermataceae; assay: Antifungal activity against dermatophytes at 28 degC after 48 to 96 hrs by broth microdilution test
# label = 1 if MFC50 < 20 µg/mL else -1

Fc1ccc(C(CCn2ccnc2)Oc2ccc(Cl)cc2Cl)cc1 (stereo unspecified) ... -1
Clc1ccc(OC(CCn2ccnc2)c2ccccc2)cc1 (stereo unspecified) ... 1
Fc1ccc(C(CCn2ccnc2)Oc2cc(Cl)cc(Cl)c2)cc1 (stereo unspecified) ... -1
Cc1ccc(OC(CCn2ccnc2)c2ccc(C)cc2)cc1 (stereo unspecified) ... -1
C[C@@H](c1ncncc1F)[C@](O)(Cn1cncn1)c1ccc(F)cc1F ... 1
Fc1ccc(C(CCn2ccnc2)Oc2ccccc2)cc1 (stereo unspecified) ... -1
Clc1cccc(Cl)c1OC(CCn1ccnc1)c1ccccc1 (stereo unspecified) ... -1
Cc1ccc(C(CCn2ccnc2)Oc2ccc(Cl)cc2Cl)cc1 (stereo unspecified) ... 1

Challenge: MFC50 under 20 µg/mL? Item: Clc1cc(Cl)cc(OC(CCn2ccnc2)c2ccccc2)c1 (stereo unspecified)
Response given: 1

Challenge: Below 20 µg/mL on MFC50? Entry Cc1ccc(OC(CCn2ccnc2)c2ccc(Cl)cc2)c(C)c1 (stereo unspecified)
Response given: -1

Challenge: I'd appreciate it if you could check whether Clc1ccc(C(OCCn2ccnc2)c2ccccc2)c(Cl)c1.O=[N+]([O-])O (stereo unspecified) has MFC50 smaller than 20 µg/mL.
Response given: 1

----------
system: Candida albicans; assay: Antifungal activity against fluconazole-resistant Candida albicans isolated from oropharyngeal or vaginal disease patient after 48 hrs by broth microdilution test; assay type: functional
Output: class label from MIC. Mapping: category 1 = under 6 µg/mL, category 2 = from 6 µg/mL up to 10 µg/mL, category 3 = 10 µg/mL and over

Solved cases (5 shown):
Cc1ccc(OC(CCn2ccnc2)c2ccc(Cl)cc2)cc1 (stereo not drawn) ... category 1
Fc1ccc(C(CCn2ccnc2)Oc2cc(Cl)cc(Cl)c2)cc1 (stereo not drawn) ... category 3
Clc1ccc(C(CCn2ccnc2)Oc2ccccc2)cc1 (stereo not drawn) ... category 3
Clc1ccc(OC(CCn2ccnc2)c2ccc(Cl)cc2)cc1 (stereo not drawn) ... category 2
Cc1ccc(OC(CCn2ccnc2)c2ccc(F)cc2)cc1 (stereo not drawn) ... category 2

Challenge: Place this compound in its band: CCC(C)n1ncn(-c2ccc(N3CCN(c4ccc(OC[C@@H]5CO[C@@](Cn6cncn6)(c6ccc(Cl)cc6Cl)O5)cc4)CC3)cc2)c1=O (stereo partly drawn) [ITRACONAZOLE]
Response given: category 3

Challenge: Note: place this compound into its band. Item: Cc1ccc(OC(CCn2ccnc2)c2ccc(C)cc2)cc1 (stereo not drawn)
Response given: category 1

Challenge: Entry Clc1ccc(COC(Cn2ccnc2)c2ccc(Cl)cc2Cl)c(Cl)c1 (stereo not drawn) [MICONAZOLE] belongs to which category?
Response given: category 1

Challenge: Form field 'band' for Clc1ccc(OC(CCn2ccnc2)c2ccccc2)c(Cl)c1 (racemic)
Response given: category 2

Challenge: Could you tell me which band Clc1ccc(C(CCn2ccnc2)Oc2ccccc2Cl)cc1 (stereo not drawn) belongs to?
Response given: category 2

Challenge: Lab note: which band did OC(Cn1cncn1)(Cn1cncn1)c1ccc(F)cc1F [FLUCONAZOLE] land in?
Response given: category 3

Challenge: Could you tell me which band Clc1ccc(C(CCn2ccnc2)Oc2ccc(Cl)cc2Cl)cc1 (stereo not drawn) belongs to?
Response given: category 2

----------
system: Candida albicans; test: Antifungal activity against Candida albicans ATCC 10261 at 35 degC after 48 hrs by broth microdilution test; type: functional; settings: Candida albicans, ATCC 10261, 48 h; read-out: MIC50
I'd be grateful if you could share measured MIC50 for these entries.
One number for each entry, in µg/mL.

Some solved entries appear below for comparison.
Clc1ccc(C(CCn2ccnc2)Oc2ccccc2Cl)cc1 (configuration not stated) ... 8
OC(CCn1ccnc1)(c1ccccc1)c1ccccc1 ... 128
CCc1ccc(OC(CCn2ccnc2)c2ccc(C)cc2)cc1 (configuration not stated) ... 4
Fc1ccc(C(CCn2ccnc2)Oc2c(Cl)cccc2Cl)cc1 (configuration not stated) ... 8
Clc1ccc(OC(CCn2ccnc2)c2ccccc2)cc1 (configuration not stated) ... 2

Items follow; give MIC50 for each.
1. Cc1ccc(C(CCn2ccnc2)Oc2ccc(C(C)C)cc2)cc1 (configuration not stated)
2. Clc1ccc(C(CCn2ccnc2)OCc2ccc(Cl)cc2Cl)cc1 (configuration not stated)

Response given:
16
64

Give measured MIC50 for every item shown.
1. Cc1ccc(OC(CCn2ccnc2)c2ccc(F)cc2)cc1 (configuration not stated)
2. Clc1ccc(OC(CCn2ccnc2)c2ccccc2)c(Cl)c1 (racemic)
3. Cc1ccc(OC(CCn2ccnc2)c2ccc(C)cc2)cc1 (configuration not stated)

Response given:
1. 4
2. 8
3. 4

Below are some compounds; for each one, tell me its MIC50.
1. CC(=O)N1CCN(c2ccc(OCC3COC(Cn4ccnc4)(c4ccc(Cl)cc4Cl)O3)cc2)CC1 (configuration not stated) [KETOCONAZOLE]
2. Cc1ccc(C(CCn2ccnc2)Oc2ccc(Cl)cc2)cc1 (configuration not stated)
3. Cc1ccc(C(CCn2ccnc2)Oc2c(Cl)cccc2Cl)cc1 (configuration not stated)
4. C[C@@H](c1ncncc1F)[C@](O)(Cn1cncn1)c1ccc(F)cc1F [VORICONAZOLE]
5. CC(C)c1ccc(OC(CCn2ccnc2)c2ccc(Cl)cc2)cc1 (configuration not stated)
6. c1ccc(OC(CCn2ccnc2)c2ccccc2)cc1 (configuration not stated)
7. Clc1ccc(COC(Cn2ccnc2)c2ccc(Cl)cc2Cl)cc1 (configuration not stated) [ECONAZOLE]

Response given:
[4, 2, 8, 0.25, 8, 32, 4]

Batch of 7 compounds: report MIC50 for each.
1. CC(C)(C)c1ccc(OC(CCn2ccnc2)c2ccc(Cl)cc2)cc1 (configuration not stated)
2. Fc1ccc(C(CCn2ccnc2)Oc2ccccc2)cc1 (configuration not stated)
3. Cc1ccc(C(CCn2ccnc2)Oc2ccc(Cl)cc2C)cc1 (configuration not stated)
4. Cc1ccc(OC(CCCn2ccnc2)c2ccc(Cl)cc2)cc1 (configuration not stated)
5. Fc1ccc(C(CCn2ccnc2)Oc2ccc(Cl)cc2Cl)cc1 (configuration not stated)
6. Clc1ccc(C(OCCn2ccnc2)c2ccc(Cl)cc2Cl)cc1.O=[N+]([O-])O (configuration not stated)
7. Cc1ccc(OC(CCCCn2ccnc2)c2ccc(Cl)cc2)cc1 (configuration not stated)

Response given:
[64, 32, 16, 2, 4, 32, 32]

Below are some compounds; for each one, tell me its MIC50.
1. CCc1ccc(OC(CCn2ccnc2)c2ccc(Cl)cc2)cc1 (configuration not stated)
2. Clc1ccc(C(CCn2ccnc2)Oc2cc(Cl)cc(Cl)c2)cc1 (configuration not stated)
3. Clc1ccc(C(OCCn2ccnc2)c2ccccc2)c(Cl)c1.O=[N+]([O-])O (configuration not stated)
4. Clc1ccc(C(CCn2ccnc2)Oc2ccccc2)cc1 (configuration not stated)
5. Clc1ccc(C(CCn2ccnc2)Oc2ccc(Cl)cc2Cl)cc1 (configuration not stated)

Response given:
[8, 8, 32, 8, 2]

Please go through the list and note MIC50 for each compound.
1. Cc1ccc(OC(CCn2ccnc2)c2ccc(Cl)cc2)c(C)c1 (configuration not stated)
2. O=[N+]([O-])O.c1ccc(C(OCCn2ccnc2)c2ccccc2)cc1
3. Clc1ccc(C(CCn2ccnc2)Oc2c(Cl)cccc2Cl)cc1 (configuration not stated)
4. Cc1ccc(C(CCn2ccnc2)Oc2ccc(C)cc2Cl)cc1 (configuration not stated)
5. Cc1ccc(OC(CCn2ccnc2)c2ccc(Cl)cc2)cc1 (configuration not stated)
6. Cc1ccc(C(CCn2ccnc2)Oc2ccc(C)cc2C)cc1 (configuration not stated)

Response given:
16
64
2
8
2
32

Report MIC50 for every entry below.
1. Cc1ccc(OC(Cn2ccnc2)c2ccc(Cl)cc2)cc1 (configuration not stated)
2. Clc1ccc(COC(Cn2ccnc2)c2ccc(Cl)cc2Cl)c(Cl)c1 (configuration not stated) [MICONAZOLE]
3. Cc1ccc(C(CCn2ccnc2)Oc2ccc(C(C)(C)C)cc2)cc1 (configuration not stated)
4. Clc1cccc(Cl)c1OC(CCn1ccnc1)c1ccccc1 (configuration not stated)
5. Clc1ccc(OC(CCn2ccnc2)c2ccc(Cl)cc2)cc1 (configuration not stated)
6. Cc1ccc(C(CCn2ccnc2)Oc2ccccc2)cc1 (configuration not stated)
7. OC(Cn1cncn1)(Cn1cncn1)c1ccc(F)cc1F [FLUCONAZOLE]
8. Cc1ccc(OC(CCn2ccnc2)c2ccccc2)cc1 (racemic)

Response given:
16
4
64
64
4
16
2
8

Field: MIC50. Fill in for each record below.
1. Fc1ccc(C(CCn2ccnc2)Oc2cc(Cl)cc(Cl)c2)cc1 (configuration not stated)
2. Clc1cc(Cl)cc(OC(CCn2ccnc2)c2ccccc2)c1 (configuration not stated)

Response given:
[8, 16]
